# Percent Effect listing for each entry below
# study.system: Ubiquitin-activating enzyme e1, putative (Leishmania donovani (strain BPK282A1)) (UniProt E9BSI1)
# Sequence (E9BSI1 as listed by the source): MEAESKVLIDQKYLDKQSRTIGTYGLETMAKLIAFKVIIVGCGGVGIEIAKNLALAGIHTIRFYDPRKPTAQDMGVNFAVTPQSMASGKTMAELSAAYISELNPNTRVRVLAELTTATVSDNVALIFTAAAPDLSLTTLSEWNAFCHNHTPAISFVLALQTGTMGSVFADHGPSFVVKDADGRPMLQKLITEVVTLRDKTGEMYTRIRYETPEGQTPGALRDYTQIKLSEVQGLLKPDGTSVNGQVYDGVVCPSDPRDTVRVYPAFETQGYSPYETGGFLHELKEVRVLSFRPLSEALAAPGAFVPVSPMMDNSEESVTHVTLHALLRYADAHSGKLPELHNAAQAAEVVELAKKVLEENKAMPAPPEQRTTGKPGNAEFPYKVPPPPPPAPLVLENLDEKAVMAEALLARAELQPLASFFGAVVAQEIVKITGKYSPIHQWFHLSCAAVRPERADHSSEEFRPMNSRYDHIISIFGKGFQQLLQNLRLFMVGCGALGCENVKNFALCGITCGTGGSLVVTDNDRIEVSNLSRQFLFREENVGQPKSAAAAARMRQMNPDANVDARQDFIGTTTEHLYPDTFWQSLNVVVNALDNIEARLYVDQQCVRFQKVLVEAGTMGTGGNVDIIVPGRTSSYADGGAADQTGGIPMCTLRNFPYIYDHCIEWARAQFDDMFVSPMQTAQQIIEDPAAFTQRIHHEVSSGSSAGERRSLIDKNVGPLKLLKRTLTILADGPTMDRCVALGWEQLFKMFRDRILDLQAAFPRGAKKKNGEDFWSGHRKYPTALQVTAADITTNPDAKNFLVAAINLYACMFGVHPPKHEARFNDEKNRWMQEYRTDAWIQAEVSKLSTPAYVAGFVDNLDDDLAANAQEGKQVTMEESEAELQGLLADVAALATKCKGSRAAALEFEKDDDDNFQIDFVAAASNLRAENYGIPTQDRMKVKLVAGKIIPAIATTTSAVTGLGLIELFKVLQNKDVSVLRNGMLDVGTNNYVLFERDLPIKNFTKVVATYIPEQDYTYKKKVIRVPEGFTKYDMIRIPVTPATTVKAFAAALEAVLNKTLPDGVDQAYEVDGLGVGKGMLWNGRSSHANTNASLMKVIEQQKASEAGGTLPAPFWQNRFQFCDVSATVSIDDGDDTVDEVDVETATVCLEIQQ
# method.summary: Leishmania donovani Ubiquitin Activating Enzyme (LdE1)
# Format: functional
# Parameters: scale not given: direction of the effect not stated beside the values
# details: 30 µM
Results with a measured potency or affinity are listed apart.
readout: Percent Effect (%)

[
  {
    "compound": "CN(Cc1ccc(C#N)cc1)Cc1noc(C(C)(C)C)n1",
    "readout": "Percent Effect",
    "unit.abbrev": "%",
    "measured": 0
  },
  {
    "compound": "CSCCC1c2nc[nH]c2CCN1Cc1ccnc2ccccc12 (configuration not stated)",
    "readout": "Percent Effect",
    "unit.abbrev": "%",
    "measured": 10.7
  },
  {
    "compound": "COc1ccc(C(=O)NCC(c2cccn2C)N2CCCC2)c(OC)c1 (configuration not stated)",
    "readout": "Percent Effect",
    "unit.abbrev": "%",
    "measured": 13
  },
  {
    "compound": "CCn1nc2c(cc1=O)CN(Cc1nc3ccccc3c(=O)[nH]1)CC2",
    "readout": "Percent Effect",
    "unit.abbrev": "%",
    "measured": 5.48
  },
  {
    "compound": "Cc1nc(C)n(C2CCCN(C(=O)Cc3n[nH]c4ccccc34)C2)n1 (configuration not stated)",
    "readout": "Percent Effect",
    "unit.abbrev": "%",
    "measured": -2.6
  },
  {
    "compound": "O=C(c1cccs1)N1CCC(O)(CN2CCc3ccccc3C2)C1 (configuration not stated)",
    "readout": "Percent Effect",
    "unit.abbrev": "%",
    "measured": 4.05
  },
  {
    "compound": "CCc1n[nH]c(C2CN(C(=O)Cn3ccccc3=O)CCO2)n1 (configuration not stated)",
    "readout": "Percent Effect",
    "unit.abbrev": "%",
    "measured": 16.5
  },
  {
    "compound": "CC(C)C(C(=O)N1CCC(Nc2cccnn2)CC1)n1cncn1 (configuration not stated)",
    "readout": "Percent Effect",
    "unit.abbrev": "%",
    "measured": -2.7
  },
  {
    "compound": "O=C(c1cccn1Cc1cccs1)N1CCN(C2CC2)CC1",
    "readout": "Percent Effect",
    "unit.abbrev": "%",
    "measured": 0
  },
  {
    "compound": "CC(C)N1CCC(NCc2cccnc2N(C)C)CC1",
    "readout": "Percent Effect",
    "unit.abbrev": "%",
    "measured": 5.33
  },
  {
    "compound": "Cc1nc(CN2CCN(CC(=O)Nc3c(C)cccc3C)CC2)no1",
    "readout": "Percent Effect",
    "unit.abbrev": "%",
    "measured": 10.4
  },
  {
    "compound": "CCn1cc(CN2CCCn3nc(CCC(=O)NCCO)cc3C2)cn1",
    "readout": "Percent Effect",
    "unit.abbrev": "%",
    "measured": 5.2
  }
]
